biological target: human recombinant MAO-B (Homo sapiens); experiment: Monoamine oxidase inhibition assay (Amplex Red, kynuramine), MAO-B; conditions: Lineweaver–Burk double-reciprocal plots, MAO-B
Sequence (P27338 whole entry): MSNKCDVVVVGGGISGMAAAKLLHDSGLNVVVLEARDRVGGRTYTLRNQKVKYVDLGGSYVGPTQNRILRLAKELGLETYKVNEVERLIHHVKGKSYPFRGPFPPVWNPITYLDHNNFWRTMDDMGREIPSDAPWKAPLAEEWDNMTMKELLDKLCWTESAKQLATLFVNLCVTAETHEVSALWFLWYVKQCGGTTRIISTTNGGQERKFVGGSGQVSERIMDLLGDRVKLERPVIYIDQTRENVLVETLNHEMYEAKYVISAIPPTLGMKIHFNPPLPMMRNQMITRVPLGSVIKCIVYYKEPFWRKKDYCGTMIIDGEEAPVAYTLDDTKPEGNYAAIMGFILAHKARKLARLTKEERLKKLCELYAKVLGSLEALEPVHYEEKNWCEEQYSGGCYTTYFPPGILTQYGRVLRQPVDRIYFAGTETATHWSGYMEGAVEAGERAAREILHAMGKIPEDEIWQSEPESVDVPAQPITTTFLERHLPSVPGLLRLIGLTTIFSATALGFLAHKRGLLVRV
PROPERTY_MEASURED: mode of inhibition

[[record]]
smiles_text = "O=C(/C=C/c1ccccc1)c1ccccc1"
result = "competitive behavior"

[[record]]
smiles_text = "O=C(/C=C/c1ccccc1)c1ccc(C(F)(F)F)cc1"
result = "competitive behavior"

[[record]]
smiles_text = "O=C(/C=C/c1ccccc1[N+](=O)[O-])c1ccccc1"
result = "competitive behavior"


----------
Entries and their GI50
tested on: Met-5A (human mesothelial cells)
PROPERTY_MEASURED: GI50

[[record]]
molecule = "COc1ccc(C(=O)/C=C/c2ccccc2)cc1 [Compound 17]"
target_under_test = "Met-5A (human mesothelial cells)"
property_measured = "GI50"
result = "~11.8 µM"

[[record]]
molecule = "O=C(/C=C/c1ccccc1)c1cccc(C(F)(F)F)c1 [Compound 13]"
target_under_test = "Met-5A (human mesothelial cells)"
property_measured = "GI50"
result = "> 20 µM"

[[record]]
molecule = "O=C(/C=C/c1ccccc1)c1ccccc1 [chalcone]"
target_under_test = "Met-5A (human mesothelial cells)"
property_measured = "GI50"
result = "~7 µM"

[[record]]
molecule = "C[C@H](NCc1ccc(OCc2cccc(F)c2)cc1)C(N)=O [safinamide, reference compound]"
target_under_test = "Met-5A (human mesothelial cells)"
property_measured = "GI50"
result = "> 20 µM"


Reference source for all entries: paper PMC8274062
